Measured values drawn from the supplement of paper PMC6992640 for this set.

System: WHIM2 (cells of a triple-negative basal-like breast cancer xenograft);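 further: PDX cells carrying CMV promoter-driven luciferase, viability read as total photon flux per second by IVIS imaging following D-luciferin, vehicle control 0.1% DMSO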
method-summary: cell viability (% of vehicle); higher = less cytotoxic
run-parameters: 10 µM; 72 h
measure-name: cell viability
Answers are plain numbers.

Some solved entries appear below for comparison.
compound=NC(=O)Cc1cccc(C(=O)c2ccccc2)c1N test_result=159
compound="Nc1nc(NC2CC2)c2ncn(C3C=CC(CO)C3)c2n1 (stereo unspecified)" test_result=179
compound="CCC(Nc1ncnc2nc[nH]c12)c1nc2cccc(F)c2c(=O)n1-c1ccccc1 (stereo unspecified)" test_result=62.8
compound="CNC(=O)c1cc(Oc2ccc(NC(=O)Nc3ccc(Cl)c(C(F)(F)F)c3)c(F)c2)ccn1.Cl [Regorafenib hydrochloride]" test_result=97.7

Batch request: cell viability for each of the following compounds.
1. O=S(=O)([O-])CCSSCCS(=O)(=O)[O-].[Na+].[Na+]
2. Cl.N#Cc1ccc2[nH]cc(CCCCN3CCN(c4ccc5oc(C(N)=O)cc5c4)CC3)c2c1 [Vilazodone Hydrochloride]
3. CCC1=CC2CN(C1)Cc1c([nH]c3ccccc13)C(C(=O)OC)(c1cc3c(cc1OC)N(C)C1C(O)(C(=O)OC)C(OC(C)=O)C4(CC)C=CCN5CCC31C54)C2 (stereo unspecified)
4. Cc1ccc(-c2cc(C(F)(F)F)nn2-c2ccc(S(N)(=O)=O)cc2)cc1

Response given:
1: 128; 2: 109; 3: 60.5; 4: 93.3

Batch request: cell viability for each of the following compounds.
1. OC[C@@H](O)[C@@H](O)[C@H](O)[C@@H](O)CO
2. CCN1CCN(c2cc3c(cc2F)c(=O)c(C(=O)O)cn3C2CC2)CC1
3. Cl.O=C1CN2Cc3c(ccc(Cl)c3Cl)NC2=N1 [Anagrelide HCl]
4. CN(N=O)C(=O)NC1C(O)OC(CO)C(O)C1O (stereo unspecified)

Response given:
1: 103; 2: 130; 3: 116; 4: 85

Batch request: cell viability for each of the following compounds.
1. CCOc1nc2cccc(C(=O)OCc3oc(=O)oc3C)c2n1Cc1ccc(-c2ccccc2-c2nc(=O)o[nH]2)cc1
2. CN(C)C(=N)N=C(N)N.Cl [Metformin HCl]
3. COCCCOc1ccnc(C[S+]([O-])c2nc3ccccc3[nH]2)c1C (stereo unspecified) [Rabeprazole sodium]
4. COc1ccc(C2Sc3ccccc3N(CCN(C)C)C(=O)C2OC(C)=O)cc1.Cl (stereo unspecified) [Diltiazem HCl]

Response given:
[106, 91.7, 135, 93]
